The origin of these recorded values is patent US20110262445A1.

Collected pKd values appear next to each entry.
Target: T1, human IL-23 (human, UniProt P29460 23-328; Q9NPF7 20-189)
T1 construct: Recombinant (Ebioscience); HIS-tagged in flow cytometry, biotinylated in some assays; also called hIL-23; rhIL-23
T1 sequence 1: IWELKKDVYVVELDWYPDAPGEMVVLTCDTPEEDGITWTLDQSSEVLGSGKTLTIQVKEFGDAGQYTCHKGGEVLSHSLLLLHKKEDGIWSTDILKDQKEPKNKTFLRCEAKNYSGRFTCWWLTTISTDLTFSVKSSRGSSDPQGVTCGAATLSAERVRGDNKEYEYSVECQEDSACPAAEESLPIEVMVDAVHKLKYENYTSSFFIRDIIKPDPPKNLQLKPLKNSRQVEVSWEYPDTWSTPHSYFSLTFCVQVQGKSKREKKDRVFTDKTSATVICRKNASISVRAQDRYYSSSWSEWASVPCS
T1 sequence 2: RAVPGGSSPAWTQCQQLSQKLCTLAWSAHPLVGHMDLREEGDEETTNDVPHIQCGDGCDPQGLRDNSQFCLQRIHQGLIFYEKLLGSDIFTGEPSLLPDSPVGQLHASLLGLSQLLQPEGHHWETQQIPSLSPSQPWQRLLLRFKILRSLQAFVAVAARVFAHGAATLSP
Assay: SPR, IgG on Protein A
pKd: −log10 of the molar value.
Outcome Measure: pKd

[[record]]
binder = "Antibody 7 (antibody, human IgG1, kappa, V domains shown, Antibody 1 with heavy chain C95N) VH: EVQLQQSGADLVRSGASIKLSCTASGFNIKDYYMHWVKQRPEQGLEWIGWIDPENGDTEYAPKFQGKATMTADTSSNTAYLQLSSLTSEDTAVYYCNANKELRYFDVWGAGTTVTVSS VL: DIVLTQSPATLSVTPGDSVSLSCRASQSISINLHWYQQKSHESPRLLIKFASQSISGIPSRFSGYGSGTDFTLSINSVETEDFGRYFCQQSNSWPLTFGAGTKLELKR"
number = 10.14

[[record]]
binder = "Antibody 4 (antibody, human IgG1, kappa, V domains shown, Antibody 1 with heavy chain M34L) VH: EVQLQQSGADLVRSGASIKLSCTASGFNIKDYYLHWVKQRPEQGLEWIGWIDPENGDTEYAPKFQGKATMTADTSSNTAYLQLSSLTSEDTAVYYCNACKELRYFDVWGAGTTVTVSS VL: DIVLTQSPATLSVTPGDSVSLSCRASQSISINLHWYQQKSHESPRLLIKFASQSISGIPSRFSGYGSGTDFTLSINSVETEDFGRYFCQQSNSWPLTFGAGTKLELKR"
number = 9.90

[[record]]
binder = "Antibody 1 (antibody, human IgG1, kappa, V domains shown, Chimeric PMA204, human IgG1/kappa) VH: EVQLQQSGADLVRSGASIKLSCTASGFNIKDYYMHWVKQRPEQGLEWIGWIDPENGDTEYAPKFQGKATMTADTSSNTAYLQLSSLTSEDTAVYYCNACKELRYFDVWGAGTTVTVSS VL: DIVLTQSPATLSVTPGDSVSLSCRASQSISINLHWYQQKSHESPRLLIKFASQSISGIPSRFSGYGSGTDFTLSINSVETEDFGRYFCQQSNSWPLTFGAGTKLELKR"
number = 10.29

[[record]]
binder = "Antibody 3 (antibody, human IgG1, kappa, V domains shown, Antibody 1 with light chain W94F) VH: EVQLQQSGADLVRSGASIKLSCTASGFNIKDYYMHWVKQRPEQGLEWIGWIDPENGDTEYAPKFQGKATMTADTSSNTAYLQLSSLTSEDTAVYYCNACKELRYFDVWGAGTTVTVSS VL: DIVLTQSPATLSVTPGDSVSLSCRASQSISINLHWYQQKSHESPRLLIKFASQSISGIPSRFSGYGSGTDFTLSINSVETEDFGRYFCQQSNSFPLTFGAGTKLELKR"
number = 10.05

